Ref: the supplement of paper PMC11061612

# Tested on: HEC-1 (Endometrial Carcinoma)
# Run description: combination Emax (second highest fraction inhibited in the dose matrix, 72 h); higher = more inhibition; extreme values may be limits of the assay
# combination Emax annotations
Respond using a number only.

Answered cases to consult:
compound="NC1(C(=O)N[C@@H](CCO)c2ccc(Cl)cc2)CCN(c2ncnc3[nH]ccc23)CC1 [Capivasertib] + CC(=O)c1c(C)c2cnc(Nc3ccc(N4CCNCC4)cn3)nc2n(C2CCCC2)c1=O [Palbociclib] (first compound max 10 µM, 7x7, partner max 10 µM)" measured_endpoint="combination Emax" reading=0.33
compound="NC1(C(=O)N[C@@H](CCO)c2ccc(Cl)cc2)CCN(c2ncnc3[nH]ccc23)CC1 [Capivasertib] + C[C@@H]1COCCN1C2=NC(=NC(=C2)C3(CC3)[S@](=N)(=O)C)C4=C5C=CNC5=NC=C4 [AZD6738] (first compound max 10 µM, 7x7, partner max 10 µM)" measured_endpoint="combination Emax" reading=0.347
compound="CN(CCO)CC[C@H](CSc1ccccc1)Nc1ccc(S(=O)(=O)NC(=O)c2ccc(N3CCC([C@@H](O)c4ccccc4-c4ccc(Cl)cc4)CC3)cc2)cc1S(=O)(=O)C(F)(F)F [AZD4320] + Cn1cnc2c(F)c(Nc3ccc(Br)cc3Cl)c(C(=O)NOCCO)cc21 [Selumetinib] (first compound max 1 µM, 7x7, partner max 3 µM)" measured_endpoint="combination Emax" reading=0.366

State its combination Emax for this compound: CC1(C)CCC(CN2CCN(c3ccc(C(=O)NS(=O)(=O)c4ccc(NCC5CCOCC5)c([N+](=O)[O-])c4)c(Oc4cnc5[nH]ccc5c4)c3)CC2)=C(c2ccc(Cl)cc2)C1 [Venetoclax] + CCN(CCO)CCCOc1ccc2c(Nc3cc(CC(=O)Nc4cccc(F)c4)[nH]n3)ncnc2c1 [AZD2811] (first compound max 1 µM, 7x7, partner max 1 µM)
0.16

// fetch combination Emax given entry COc1nnc2ccc(N3CCC(c4ccc(OCCN5CCN(C)C(=O)[C@H]5C)cc4)CC3)nn12 [AZD5153] + Cn1cnc2c(F)c(Nc3ccc(Br)cc3Cl)c(C(=O)NOCCO)cc21 [Selumetinib] (first compound max 1 µM, 7x7, partner max 10 µM)
0.595

Give me measured combination Emax, please, for this compound: CN(CCO)CC[C@H](CSc1ccccc1)Nc1ccc(S(=O)(=O)NC(=O)c2ccc(N3CCC([C@@H](O)c4ccccc4-c4ccc(Cl)cc4)CC3)cc2)cc1S(=O)(=O)C(F)(F)F [AZD4320] + C[C@@H]1COCCN1C2=NC(=NC(=C2)C3(CC3)[S@](=N)(=O)C)C4=C5C=CNC5=NC=C4 [AZD6738] (first compound max 1 µM, 7x7, partner max 10 µM)
0.613

For COc1nnc2ccc(N3CCC(c4ccc(OCCN5CCN(C)C(=O)[C@H]5C)cc4)CC3)nn12 [AZD5153] + CC1(C)CCC(CN2CCN(c3ccc(C(=O)NS(=O)(=O)c4ccc(NCC5CCOCC5)c([N+](=O)[O-])c4)c(Oc4cnc5[nH]ccc5c4)c3)CC2)=C(c2ccc(Cl)cc2)C1 [Venetoclax] (first compound max 1 µM, 7x7, partner max 1 µM) , write its combination Emax.
0.602

Look up combination Emax of COc1nnc2ccc(N3CCC(c4ccc(OCCN5CCN(C)C(=O)[C@H]5C)cc4)CC3)nn12 [AZD5153] + Cc1c2c(nn1C)CSCc1cc(n(C)n1)CSc1cc(c3ccccc3c1)OCCCc1c(C(=O)O)n(C)c3c-2c(Cl)ccc13 [AZD5991] (first compound max 1 µM, 7x7, partner max 1 µM) and report it.
0.942
